- tested-on: BRD4 (Homo sapiens, UniProt O60885)
- Construct: endogenous in cells; host or cells: K562
- assay-name: KAM-matrix competition in K562 lysate
- Assay type: binding
- condition-notes: KAM 0.001-10 uM, read-out: RB50 (the source's name)

- chemical-string: "N#CCc1ccc(Nc2nc(NCCCN)cc(Nc3cc(C4CC4)[nH]n3)n2)cc1"
  IC50: "> 10 µM"

---

- tested-on: ATM (Homo sapiens, UniProt Q13315)
- Sequence (Q13315 whole entry): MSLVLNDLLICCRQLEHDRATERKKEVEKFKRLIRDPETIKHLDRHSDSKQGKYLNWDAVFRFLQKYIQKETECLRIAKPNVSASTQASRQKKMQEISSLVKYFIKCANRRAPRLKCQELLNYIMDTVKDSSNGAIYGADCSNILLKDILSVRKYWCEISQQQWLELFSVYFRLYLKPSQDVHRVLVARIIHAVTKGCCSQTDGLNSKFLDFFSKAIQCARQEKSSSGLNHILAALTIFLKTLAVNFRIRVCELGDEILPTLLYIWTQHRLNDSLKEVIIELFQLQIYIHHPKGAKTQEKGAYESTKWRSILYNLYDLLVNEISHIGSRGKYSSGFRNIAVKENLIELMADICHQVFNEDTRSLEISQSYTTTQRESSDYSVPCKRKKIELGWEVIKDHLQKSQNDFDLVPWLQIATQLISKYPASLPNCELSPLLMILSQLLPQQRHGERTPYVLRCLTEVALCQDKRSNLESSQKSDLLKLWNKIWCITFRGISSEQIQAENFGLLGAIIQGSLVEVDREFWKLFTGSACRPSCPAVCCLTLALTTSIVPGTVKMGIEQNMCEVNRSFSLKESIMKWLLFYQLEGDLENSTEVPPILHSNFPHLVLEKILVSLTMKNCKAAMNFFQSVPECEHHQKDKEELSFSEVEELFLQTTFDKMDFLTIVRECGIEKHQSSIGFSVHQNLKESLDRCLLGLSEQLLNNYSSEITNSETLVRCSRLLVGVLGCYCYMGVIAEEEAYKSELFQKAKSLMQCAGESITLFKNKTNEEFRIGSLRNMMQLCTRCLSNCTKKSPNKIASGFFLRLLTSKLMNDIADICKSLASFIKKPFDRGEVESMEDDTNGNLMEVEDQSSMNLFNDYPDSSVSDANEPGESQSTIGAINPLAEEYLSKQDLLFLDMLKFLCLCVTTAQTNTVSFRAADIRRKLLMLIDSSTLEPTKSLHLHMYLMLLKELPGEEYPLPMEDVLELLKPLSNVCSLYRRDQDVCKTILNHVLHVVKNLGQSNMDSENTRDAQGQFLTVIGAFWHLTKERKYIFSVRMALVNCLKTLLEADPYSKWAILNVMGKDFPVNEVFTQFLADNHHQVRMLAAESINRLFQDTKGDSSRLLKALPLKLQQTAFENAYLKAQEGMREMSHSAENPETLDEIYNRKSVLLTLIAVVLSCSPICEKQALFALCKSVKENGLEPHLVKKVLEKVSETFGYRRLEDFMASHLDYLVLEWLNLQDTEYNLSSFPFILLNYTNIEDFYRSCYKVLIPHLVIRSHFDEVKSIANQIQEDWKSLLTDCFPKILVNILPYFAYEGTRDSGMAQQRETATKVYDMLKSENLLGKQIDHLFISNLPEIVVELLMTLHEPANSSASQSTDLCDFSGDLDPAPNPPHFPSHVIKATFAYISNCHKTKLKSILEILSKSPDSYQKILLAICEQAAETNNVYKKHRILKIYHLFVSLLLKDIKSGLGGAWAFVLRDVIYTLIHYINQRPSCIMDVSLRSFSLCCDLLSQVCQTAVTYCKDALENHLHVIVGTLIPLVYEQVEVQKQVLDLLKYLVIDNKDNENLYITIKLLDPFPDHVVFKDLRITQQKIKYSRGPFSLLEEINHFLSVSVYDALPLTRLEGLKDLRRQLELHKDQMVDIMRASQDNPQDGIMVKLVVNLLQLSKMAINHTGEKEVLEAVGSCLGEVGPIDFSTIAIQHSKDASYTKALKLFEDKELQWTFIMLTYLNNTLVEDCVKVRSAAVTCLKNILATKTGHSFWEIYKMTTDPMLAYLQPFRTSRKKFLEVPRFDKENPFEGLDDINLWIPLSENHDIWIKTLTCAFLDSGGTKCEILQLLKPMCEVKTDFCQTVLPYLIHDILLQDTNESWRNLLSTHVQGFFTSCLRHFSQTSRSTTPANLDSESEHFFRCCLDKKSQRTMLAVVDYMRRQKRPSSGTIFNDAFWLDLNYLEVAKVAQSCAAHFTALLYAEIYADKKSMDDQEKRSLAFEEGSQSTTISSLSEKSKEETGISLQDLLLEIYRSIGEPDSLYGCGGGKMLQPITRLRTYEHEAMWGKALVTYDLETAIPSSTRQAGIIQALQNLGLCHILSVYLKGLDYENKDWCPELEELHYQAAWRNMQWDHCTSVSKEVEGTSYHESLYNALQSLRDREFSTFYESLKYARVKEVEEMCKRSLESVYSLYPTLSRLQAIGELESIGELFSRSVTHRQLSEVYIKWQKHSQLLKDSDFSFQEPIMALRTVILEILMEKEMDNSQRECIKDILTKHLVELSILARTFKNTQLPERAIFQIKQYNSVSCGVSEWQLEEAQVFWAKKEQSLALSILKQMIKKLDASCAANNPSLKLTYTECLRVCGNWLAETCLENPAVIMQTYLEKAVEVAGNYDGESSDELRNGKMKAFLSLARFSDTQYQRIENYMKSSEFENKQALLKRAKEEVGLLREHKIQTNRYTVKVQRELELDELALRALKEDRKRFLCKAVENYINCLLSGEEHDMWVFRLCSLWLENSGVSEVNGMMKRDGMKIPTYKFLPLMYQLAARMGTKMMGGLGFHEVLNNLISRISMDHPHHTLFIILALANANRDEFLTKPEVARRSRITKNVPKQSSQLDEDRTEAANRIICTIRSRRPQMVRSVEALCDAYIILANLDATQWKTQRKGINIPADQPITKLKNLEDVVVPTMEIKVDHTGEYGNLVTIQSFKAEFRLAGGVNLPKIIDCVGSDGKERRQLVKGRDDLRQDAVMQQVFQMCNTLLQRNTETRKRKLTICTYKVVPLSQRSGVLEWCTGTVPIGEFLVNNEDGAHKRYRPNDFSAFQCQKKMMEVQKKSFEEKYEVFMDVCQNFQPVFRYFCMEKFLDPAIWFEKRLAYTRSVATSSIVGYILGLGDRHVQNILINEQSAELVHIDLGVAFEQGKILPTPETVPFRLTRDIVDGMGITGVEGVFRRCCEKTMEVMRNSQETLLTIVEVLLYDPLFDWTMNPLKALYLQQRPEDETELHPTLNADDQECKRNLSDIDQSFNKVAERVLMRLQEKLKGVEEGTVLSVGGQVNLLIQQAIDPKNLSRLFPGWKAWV
- assay-name: Dasatinib-matrix competition in K562 lysate
- Set-up: endogenous in cells; host or cells: K562
- condition-notes: residual binding 50 value; read-out: RB50 (the source's name)

- chemical-string: "Cc1nc(Nc2ncc(C(=O)Nc3c(C)cccc3Cl)s2)cc(N2CCN(CCO)CC2)n1"
  tested-on: "ATM (Homo sapiens, UniProt Q13315)"
  IC50: "> 10 µM"
